system: HS 578T breast; assay: NCI-60 one-dose screen, 48 h; conditions: 10 µM unless noted
Compounds without any hit were thinned out: in the full panel of roughly 83,000, 20% have a hit. Active and inactive are the calls of the source. Rule for the calls: active = growth percent below 10; inactive = the rest.
Choose one outcome from this list and give only that: active, inactive

Recorded results for 9 molecules are shown here.
>  <MOLECULE>
COc1ccc(C2=NN(C(C)=O)C(c3cn(Cc4ccc(Cl)cc4)c4ccccc34)C2)cc1 (stereo not given)

>  <GROUP LABEL>
inactive

$$$$
>  <MOLECULE>
Cc1cccc(C)c1-c1cc(Cc2ccc(Cl)cc2)c(=O)[nH]n1

>  <GROUP LABEL>
inactive

$$$$
>  <MOLECULE>
O=C(NCCc1ccccn1)OCc1nc2nc(Cl)nc(N3CCOCC3)c2[nH]1

>  <GROUP LABEL>
inactive

$$$$
>  <MOLECULE>
CN1CCN(C(=O)OCc2nc3c(N4CCOCC4)nc(-c4ccccc4)nc3n2C)CC1

>  <GROUP LABEL>
active

$$$$
>  <MOLECULE>
C#Cc1cccc(NC(=O)Nc2cccc(N=C=S)c2)c1

>  <GROUP LABEL>
inactive

$$$$
>  <MOLECULE>
COc1ccc(C(=O)/C=C/c2cn(Cc3ccc(Cl)cc3)c3ccccc23)cc1

>  <GROUP LABEL>
inactive

$$$$
>  <MOLECULE>
CC(=O)Nc1ccc(C(=O)Nc2cc(-c3ccccc3)ccc2N)cc1

>  <GROUP LABEL>
inactive

$$$$
>  <MOLECULE>
CC(=O)OC1CCC2(C)C(CCC3C4CC=C(C(C)=O)C4(C)OC(=O)CC32)C1 (stereo not given)

>  <GROUP LABEL>
inactive

$$$$
>  <MOLECULE>
CCN1C(=O)/C(=c2\sc3n(c2=O)NC2C(N=3)N(CC)C(=O)N2CC)c2ccccc21 (stereo not given)

>  <GROUP LABEL>
inactive

$$$$

Here's the next entry for you.
Name the outcome recorded for COc1ccc(C(=O)c2cc3c(N)c(C(=O)Nc4cccc5ccccc45)sc3nc2C)cc1 in the assay.
inactive

* * *

Readings of growth for the listed compounds
tested on: DU-145 prostate; assay: NCI-60 one-dose screen, 48 h (100 = growth as untreated, 0 = no growth, -100 = all killed); settings: 10 µM unless noted
About 83,000 compounds went through this panel and 20% of them were active in at least one assay; those are over-represented in the sample as a whole.
Just the number in %, nothing appended.

Item CC(C)Cc1ccc(C(C)C(=O)NCc2ccc(Cn3c(=O)sn(-c4ccc(Cl)cc4)c3=O)cc2)cc1 (centres undefined) has what recorded growth?
84.4

Item CC(=O)CCSc1ccc(OC(C)=O)cc1 has what recorded growth?
108

Item COc1ccc(C2CC(c3cccc(Nc4ccncc4)c3)=NN2c2ccc(Cl)cc2)cc1 (centres undefined) has what recorded growth?
23.6

Item COc1ccc(CNC(=O)COc2ccc(/C=N/Nc3nc4ccccc4s3)cc2)cc1 has what recorded growth?
-49.1

Item COC(=O)N[C@H]1CCc2cc(OC)c(OC)c(OC)c2-c2ccc(SC)c(=O)cc21 has what recorded growth?
1.4

Item COc1cc(/C=C/C(=O)c2ccc(Nc3ncnc4ccccc34)cc2)cc(OC)c1 has what recorded growth?
71.7

Item CS(=O)(=O)c1ccc(-c2cc(-c3nnc(SCC(=O)Nc4ccc(C(=O)/C=C/c5ccc(Cl)cc5)cc4)n3-c3ccccc3)c3ccccc3n2)cc1 has what recorded growth?
105

Item COc1ccc(/C=C(/c2ccccc2)[N+](=O)[O-])cc1 has what recorded growth?
-85.5
